# MEASURED ON: 3',5'-cyclic-AMP phosphodiesterase 4B (Homo sapiens)
# Sequence (Q07343 whole entry): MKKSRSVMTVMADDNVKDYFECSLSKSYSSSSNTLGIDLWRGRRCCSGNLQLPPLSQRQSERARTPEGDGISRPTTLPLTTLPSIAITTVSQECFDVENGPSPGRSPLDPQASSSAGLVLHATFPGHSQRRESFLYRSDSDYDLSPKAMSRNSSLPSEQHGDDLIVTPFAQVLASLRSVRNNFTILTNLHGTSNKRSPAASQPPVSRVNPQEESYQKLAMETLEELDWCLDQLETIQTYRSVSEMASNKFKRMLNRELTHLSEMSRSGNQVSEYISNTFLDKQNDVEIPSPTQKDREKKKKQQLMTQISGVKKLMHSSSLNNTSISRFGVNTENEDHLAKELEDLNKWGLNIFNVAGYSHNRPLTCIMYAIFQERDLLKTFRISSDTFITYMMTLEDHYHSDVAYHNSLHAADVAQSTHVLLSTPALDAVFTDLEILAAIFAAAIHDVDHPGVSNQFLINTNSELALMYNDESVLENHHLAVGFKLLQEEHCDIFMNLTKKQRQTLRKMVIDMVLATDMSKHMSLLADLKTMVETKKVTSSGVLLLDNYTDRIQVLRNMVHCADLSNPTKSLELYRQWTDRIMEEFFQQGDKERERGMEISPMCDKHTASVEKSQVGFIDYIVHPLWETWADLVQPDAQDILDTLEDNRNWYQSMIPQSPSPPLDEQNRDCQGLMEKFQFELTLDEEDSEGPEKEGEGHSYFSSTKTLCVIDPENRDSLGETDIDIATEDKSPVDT
# MEASUREMENT NOTES: Inhibition of PDE4B1 (unknown origin) expressed in sf9 cells using cAMP as substrate preincubated at 30 uM for 15 mins before substrate addition measured after 1 hr by luminescence assay
# binarize inhibition: threshold 80% inclusive, high side true, low side false

*Q* Dear colleague, could you confirm whether NS(=O)(=O)c1cc2c3c(c1)nc(-c1cccc(Br)c1)n3-c1ccccc1O2 has inhibition at or above 80%?
*A* true

*Q* Dear colleague, could you confirm whether NS(=O)(=O)c1cc2c3c(c1)nc(-c1cc(Br)ccc1F)n3-c1ccccc1O2 has inhibition at or above 80%?
*A* true

*Q* Dear colleague, could you confirm whether NS(=O)(=O)c1cc2c3c(c1)nc(-c1ccc(O)cc1)n3-c1ccccc1O2 has inhibition at or above 80%?
*A* true

*Q* Dear colleague, could you confirm whether NS(=O)(=O)c1cc2c3c(c1)nc(-c1cccc(O)c1)n3-c1ccccc1O2 has inhibition at or above 80%?
*A* true

*Q* Dear colleague, could you confirm whether COc1ccc(-c2nc3cc(S(N)(=O)=O)cc4c3n2-c2ccccc2O4)cc1 has inhibition at or above 80%?
*A* false

*Q* Dear colleague, could you confirm whether NS(=O)(=O)c1cc2c3c(c1)nc(-c1cccc([N+](=O)[O-])c1)n3-c1ccccc1O2 has inhibition at or above 80%?
*A* false

*Q* Dear colleague, could you confirm whether COc1cc(-c2nc3cc(S(N)(=O)=O)cc4c3n2-c2ccccc2O4)ccc1O has inhibition at or above 80%?
*A* true

*Q* Dear colleague, could you confirm whether CCN(CC)c1ccc(-c2nc3cc(S(N)(=O)=O)cc4c3n2-c2ccccc2O4)c(O)c1 has inhibition at or above 80%?
*A* false

*Q* Dear colleague, could you confirm whether NS(=O)(=O)c1cc2c3c(c1)nc(-c1ccccc1O)n3-c1ccccc1O2 has inhibition at or above 80%?
*A* true

*Q* Dear colleague, could you confirm whether NS(=O)(=O)c1cc2c3c(c1)nc(-c1ccccc1Cl)n3-c1ccccc1O2 has inhibition at or above 80%?
*A* false

----------
# MEASURED ON: UniProt Q07343
# MEASUREMENT NOTES: Inhibition of PDE4B1 (unknown origin) expressed in sf9 cells using cAMP as substrate preincubated at 30 uM for 15 mins before substrate addition measured after 1 hr by luminescence assay
REPORTED ENDPOINT: inhibition

Consider NS(=O)(=O)c1cc2c3c(c1)nc(-c1ccccc1)n3-c1ccccc1O2 . Its measured inhibition is 79.7%

Consider NS(=O)(=O)c1cc2c3c(c1)nc(-c1ccccc1Br)n3-c1ccccc1O2 . Its measured inhibition is 81%

Consider NS(=O)(=O)c1cc2c3c(c1)nc(-c1ccc(Cl)cc1)n3-c1ccccc1O2 . Its measured inhibition is 80.3%

Consider NS(=O)(=O)c1cc2c3c(c1)nc(-c1c(Cl)cccc1Cl)n3-c1ccccc1O2 . Its measured inhibition is 80.2%
